# assayTarget: kinases (Homo sapiens, UniProt P00519, F317L)
# Construct: purchased Eurofins/DiscoveRx; host or cells: E. coli BL21-derived host (T7 phage display) for most kinases; HEK-293 for the rest
# Sequence (P00519 whole entry F317L): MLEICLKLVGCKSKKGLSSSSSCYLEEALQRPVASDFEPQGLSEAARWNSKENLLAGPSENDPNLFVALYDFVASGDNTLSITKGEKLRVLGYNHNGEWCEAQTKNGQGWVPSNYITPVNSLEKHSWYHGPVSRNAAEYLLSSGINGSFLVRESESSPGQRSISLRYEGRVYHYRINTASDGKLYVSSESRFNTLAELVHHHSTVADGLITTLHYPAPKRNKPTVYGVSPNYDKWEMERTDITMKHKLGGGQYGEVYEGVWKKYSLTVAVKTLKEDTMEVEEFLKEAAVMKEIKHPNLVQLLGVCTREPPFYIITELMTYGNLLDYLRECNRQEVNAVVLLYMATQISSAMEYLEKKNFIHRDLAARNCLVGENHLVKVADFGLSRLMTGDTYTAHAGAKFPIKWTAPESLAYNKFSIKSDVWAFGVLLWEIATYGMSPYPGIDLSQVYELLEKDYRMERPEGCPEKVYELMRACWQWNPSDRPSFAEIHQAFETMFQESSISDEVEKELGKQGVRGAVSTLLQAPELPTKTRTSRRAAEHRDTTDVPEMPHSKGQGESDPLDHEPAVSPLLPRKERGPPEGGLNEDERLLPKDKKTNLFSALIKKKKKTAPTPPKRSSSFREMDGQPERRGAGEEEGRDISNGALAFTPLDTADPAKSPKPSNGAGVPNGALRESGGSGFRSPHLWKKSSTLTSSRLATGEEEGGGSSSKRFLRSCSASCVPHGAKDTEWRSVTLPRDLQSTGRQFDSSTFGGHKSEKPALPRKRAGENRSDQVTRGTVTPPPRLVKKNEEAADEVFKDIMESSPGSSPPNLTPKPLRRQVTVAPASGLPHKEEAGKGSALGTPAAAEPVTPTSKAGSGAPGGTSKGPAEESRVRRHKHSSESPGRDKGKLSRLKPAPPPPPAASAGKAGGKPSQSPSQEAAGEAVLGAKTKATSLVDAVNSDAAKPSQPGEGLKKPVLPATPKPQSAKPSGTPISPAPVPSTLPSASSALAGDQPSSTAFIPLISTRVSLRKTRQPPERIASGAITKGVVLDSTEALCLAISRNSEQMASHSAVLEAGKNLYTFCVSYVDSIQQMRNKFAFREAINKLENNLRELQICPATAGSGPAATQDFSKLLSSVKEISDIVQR
# assayOverview: KINOMEscan kinase binding assay (Eurofins/DiscoveRx), % Ctrl
# conditionDescription: target ABL1(F317L)-phosphorylated; 1 μM
For each entry below, report its % Ctrl, ABL1(F317L)-phosphorylated value.
Express it in % Ctrl; write the number only.

[in] % Ctrl, ABL1(F317L)-phosphorylated of CN1CCOCCOc2cc3c(cc2Cl)NC(=O)/C3=C\c2[nH]ccc2C1=O [Ex. 143] on kinases (Homo sapiens, UniProt P00519, F317L)?
[out] 17

[in] Then what about the compound Cc1nn(C)c2c1-c1ccc3c(c1)/C(=C/c1[nH]ccc1C(=O)N(C)CCCO2)C(=O)N3 [Ex. 150] ?
[out] 82

[in] Next record, please: Cc1cc2c([nH]1)/C=C1\C(=O)Nc3ccc(cc31)-c1c(noc1C)CNCCN(C)C2=O [Ex. 139]
[out] 39

Entry source: patent US20230257396A1
